I'd appreciate it if you could supply inhibition at 4 µM values for the items below.
target-entity: OR28/OR7 (Anopheles gambiae, UniProt A0A1S4GFY3+Q7QCC7)
Sequence (A0A1S4GFY3 entry or part of it): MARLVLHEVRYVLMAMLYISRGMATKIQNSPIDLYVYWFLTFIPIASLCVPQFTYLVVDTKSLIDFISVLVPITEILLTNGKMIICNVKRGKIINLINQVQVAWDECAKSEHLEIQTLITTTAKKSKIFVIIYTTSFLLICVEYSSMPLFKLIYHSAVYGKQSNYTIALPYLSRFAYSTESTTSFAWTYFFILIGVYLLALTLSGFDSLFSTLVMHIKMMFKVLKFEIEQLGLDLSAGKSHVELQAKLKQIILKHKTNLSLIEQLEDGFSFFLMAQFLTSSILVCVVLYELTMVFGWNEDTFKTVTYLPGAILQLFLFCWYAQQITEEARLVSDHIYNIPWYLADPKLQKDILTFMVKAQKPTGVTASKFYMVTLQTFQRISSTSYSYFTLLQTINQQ
Sequence (Q7QCC7 whole entry): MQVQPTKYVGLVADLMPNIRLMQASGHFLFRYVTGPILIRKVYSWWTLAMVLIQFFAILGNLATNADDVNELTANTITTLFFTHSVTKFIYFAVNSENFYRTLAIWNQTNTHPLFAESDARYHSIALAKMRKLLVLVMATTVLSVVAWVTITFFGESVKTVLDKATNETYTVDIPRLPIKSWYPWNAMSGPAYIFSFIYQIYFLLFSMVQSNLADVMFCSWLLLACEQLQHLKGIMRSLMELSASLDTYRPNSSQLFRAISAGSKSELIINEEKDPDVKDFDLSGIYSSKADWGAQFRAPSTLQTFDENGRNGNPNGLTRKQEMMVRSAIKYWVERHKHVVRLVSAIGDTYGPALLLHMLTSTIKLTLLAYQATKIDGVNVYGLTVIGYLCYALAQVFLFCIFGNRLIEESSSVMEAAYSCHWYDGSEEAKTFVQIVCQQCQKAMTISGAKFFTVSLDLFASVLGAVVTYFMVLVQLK
assay-summary: Ca2+-imaging of stable HEK293T cell line OR28/OR7
Type: cell-based
test-settings: HEK-293T; compound applied at 4 μM; read-out: Percent Inhibition OR28 OR7

Known results for compounds:
compound	target-entity	value-observed
Cc1cccc(NC(=O)CCC2CCN(C(=O)CCOc3ccccc3)CC2)c1 [RU-0030324]	OR28/OR7 (Anopheles gambiae, UniProt A0A1S4GFY3+Q7QCC7)	> 75%
CN(C)c1ccc(C(=O)N2CCOC(COCc3ccccc3F)C2)cc1 (centres unmarked) [RU-0050325]	OR28/OR7 (Anopheles gambiae, UniProt A0A1S4GFY3+Q7QCC7)	> 75%
CC(C)CN(Cc1nccn1Cc1ccc(Cl)cc1Cl)C(=O)c1ccccc1F [RU-0055322]	OR28/OR7 (Anopheles gambiae, UniProt A0A1S4GFY3+Q7QCC7)	> 75%
COCCN(Cc1cc(Cl)ccc1OS(=O)(=O)c1ccc(F)cc1)C(=O)C1CCC1 [RU-0035287]	OR28/OR7 (Anopheles gambiae, UniProt A0A1S4GFY3+Q7QCC7)	> 75%

q: // inhibition at 4 µM lookup, key: COC(=O)C(Cc1ccccc1)NC(=O)C1CC1(c1ccccc1)c1ccccc1 (centres unmarked) [RU-0028029]
a: 51 to 74%

---

target-entity: OR28/OR7 (Anopheles gambiae, UniProt A0A1S4GFY3+Q7QCC7)
assay-summary: Ca2+-imaging of stable HEK293T cell line OR28/OR7
Type: cell-based
test-settings: HEK-293T; compound applied at 4 μM; read-out: Percent Inhibition OR28 OR7
quantity: inhibition at 4 µM

Known results for compounds:
compound	target-entity	inhibition at 4 µM
COc1ccc(N2CCN(C(=O)C3CC=CCC3C(=O)NC(c3ccccc3)c3ccccn3)CC2)cc1 (stereo not drawn)	OR28/OR7 (Anopheles gambiae, UniProt A0A1S4GFY3+Q7QCC7)	> 75%
Cc1cc(C)c2c(c1C(=O)N1CCC3(CC1)C(=O)NCN3c1ccccc1)CC(C)(C)C2=O	OR28/OR7 (Anopheles gambiae, UniProt A0A1S4GFY3+Q7QCC7)	> 75%
CCNc1nc(NC(C)C)nc(N(C#N)Cc2ccccc2)n1	OR28/OR7 (Anopheles gambiae, UniProt A0A1S4GFY3+Q7QCC7)	> 75%
Cc1ccccc1C(=O)N[C@@H]1CCCCC1NC(=O)C1CCCN(S(=O)(=O)c2cc(Cl)ccc2Cl)C1 (stereo partly drawn)	OR28/OR7 (Anopheles gambiae, UniProt A0A1S4GFY3+Q7QCC7)	> 75%
O=C(Cc1cccc(F)c1)N1CCOC(COCc2c(Cl)cccc2Cl)C1 (stereo not drawn)	OR28/OR7 (Anopheles gambiae, UniProt A0A1S4GFY3+Q7QCC7)	> 75%

Each compound below has a recorded value; state its inhibition at 4 µM.
1. CCOCCCN(CC(=O)N(Cc1ccc2c(c1)OCO2)Cc1sccc1C)C(=O)NC(C)(C)C
2. COc1ccc(C(=O)c2ccccc2)c(O)c1O
3. CCN(C)c1onc(-c2ccccc2)c1CN(CCCOC)C(=O)c1ccco1
4. COc1ccccc1CCC(=O)N1CCC(CCC(=O)Nc2ccccc2)CC1
5. CN(C)c1nc(N(C)C)nc(N(C)C)n1

a:
1: > 75%; 2: 51 to 74%; 3: > 75%; 4: > 75%; 5: 51 to 74%

Reference source for all entries: patent US20130324522A1
